Molecular target: PI3K (h) p110β/p85α (Homo sapiens, UniProt P42338)
Sequence (P42338 whole entry): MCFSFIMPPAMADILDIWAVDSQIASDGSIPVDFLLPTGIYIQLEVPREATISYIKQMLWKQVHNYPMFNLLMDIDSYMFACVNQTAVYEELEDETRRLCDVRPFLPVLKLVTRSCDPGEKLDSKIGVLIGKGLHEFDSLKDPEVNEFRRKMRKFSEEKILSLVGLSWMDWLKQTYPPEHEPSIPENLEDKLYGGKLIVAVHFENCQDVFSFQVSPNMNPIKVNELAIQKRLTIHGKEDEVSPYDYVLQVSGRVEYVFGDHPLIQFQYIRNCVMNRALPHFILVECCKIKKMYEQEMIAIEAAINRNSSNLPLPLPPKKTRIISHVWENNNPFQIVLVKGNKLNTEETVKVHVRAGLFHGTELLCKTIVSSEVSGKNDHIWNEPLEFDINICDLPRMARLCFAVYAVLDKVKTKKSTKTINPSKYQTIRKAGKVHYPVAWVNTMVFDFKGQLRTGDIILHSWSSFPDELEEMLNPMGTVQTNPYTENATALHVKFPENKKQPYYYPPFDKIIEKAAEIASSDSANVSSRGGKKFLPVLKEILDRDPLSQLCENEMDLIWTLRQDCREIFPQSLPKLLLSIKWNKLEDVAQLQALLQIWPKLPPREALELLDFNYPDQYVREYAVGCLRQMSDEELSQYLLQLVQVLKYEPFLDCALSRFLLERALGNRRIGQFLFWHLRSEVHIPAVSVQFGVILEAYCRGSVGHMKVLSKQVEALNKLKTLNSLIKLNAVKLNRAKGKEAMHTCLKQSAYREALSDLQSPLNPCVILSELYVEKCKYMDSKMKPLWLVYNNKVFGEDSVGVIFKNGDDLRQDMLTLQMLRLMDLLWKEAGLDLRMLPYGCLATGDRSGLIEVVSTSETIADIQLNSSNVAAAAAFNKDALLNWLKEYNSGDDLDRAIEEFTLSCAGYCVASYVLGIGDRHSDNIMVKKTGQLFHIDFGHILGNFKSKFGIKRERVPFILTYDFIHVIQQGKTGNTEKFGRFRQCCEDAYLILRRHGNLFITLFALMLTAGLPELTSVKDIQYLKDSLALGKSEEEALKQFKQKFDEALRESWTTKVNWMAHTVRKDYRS
Sequence (P27986 whole entry partner): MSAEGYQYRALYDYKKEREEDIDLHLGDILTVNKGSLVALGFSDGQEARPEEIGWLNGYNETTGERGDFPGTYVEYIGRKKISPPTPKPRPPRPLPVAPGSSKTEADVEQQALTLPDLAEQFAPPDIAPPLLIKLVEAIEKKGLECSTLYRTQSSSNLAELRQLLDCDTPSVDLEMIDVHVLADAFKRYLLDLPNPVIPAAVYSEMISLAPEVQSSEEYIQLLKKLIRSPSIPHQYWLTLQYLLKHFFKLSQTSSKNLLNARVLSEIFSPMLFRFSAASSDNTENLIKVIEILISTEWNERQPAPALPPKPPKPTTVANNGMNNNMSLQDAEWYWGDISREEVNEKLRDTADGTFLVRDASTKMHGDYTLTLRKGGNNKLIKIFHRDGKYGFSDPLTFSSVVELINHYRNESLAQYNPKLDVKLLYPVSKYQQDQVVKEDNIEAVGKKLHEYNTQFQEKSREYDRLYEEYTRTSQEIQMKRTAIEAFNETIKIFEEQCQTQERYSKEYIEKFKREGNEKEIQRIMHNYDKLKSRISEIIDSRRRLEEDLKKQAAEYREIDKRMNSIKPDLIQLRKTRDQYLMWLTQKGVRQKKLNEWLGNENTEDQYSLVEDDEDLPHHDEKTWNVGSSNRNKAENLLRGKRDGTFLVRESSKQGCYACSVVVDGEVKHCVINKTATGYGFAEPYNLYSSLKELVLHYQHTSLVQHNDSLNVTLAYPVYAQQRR
Assay: PI3K (p110β/p85α) (h) non-radioactive HTRF kinase assay
Settings: Kinase inhibition data; performed at Millipore UK Ltd
pIC50: −log10 of the molar value.
test-readout: pIC50

>>> reported_measurement("CC[C@H](Nc1ncnc(N)c1-c1nc(C)no1)c1nc2cccc(-c3cnn(C)c3)c2c(=O)n1C1CC1 [Ex. 71]")
6.12
>>> reported_measurement("Cc1noc(-c2c(N)ncnc2N[C@@H](C)c2nc3cccc(-c4cnn(C)c4)c3c(=O)n2C2CC2)n1 [Ex. 66]")
5.74
>>> reported_measurement("Cc1noc(-c2c(N)ncnc2N[C@@H](C)c2nc3cccc(-c4cnn(C)c4)c3c(=O)n2-c2ccccc2)n1 [Ex. 68]")
5.93

----------
Test: Pharmacokinetics after intravenous and oral administration in rats
Type: in vivo
Conditions: rat, plasma, iv, 1 mg/kg; read-out: Vss
test-readout: Vd (L/kg)

Sample records with Vd:
>>> reported_measurement("Cc1noc(-c2c(N)ncnc2N[C@@H](C)c2nc3cccc(-c4cnn(C)c4)c3c(=O)n2C2CC2)n1 [Ex. 66]")
2.98
>>> reported_measurement("CC[C@H](Nc1ncnc(N)c1-c1nc(C)no1)c1nc2cccc(-c3cnn(C)c3)c2c(=O)n1C1CC1 [Ex. 71]")
4.9
>>> reported_measurement("CC[C@H](Nc1ncnc(N)c1-c1nnc(C)o1)c1nc2cccc(-c3cnn(C)c3)c2c(=O)n1-c1ccccc1 [Ex. 73]")
1.44
>>> reported_measurement("Cc1noc(-c2c(N)ncnc2N[C@@H](C)c2nc3cccc(-c4cnn(C)c4)c3c(=O)n2-c2ccccc2)n1 [Ex. 68]")
0.89
>>> reported_measurement("CC[C@H](Nc1ncnc(N)c1-c1nnc(C)o1)c1nc2cccc(-c3cnn(C)c3)c2c(=O)n1C1CC1 [Ex. 72]")
3.85

[I] CC[C@H](Nc1ncnc(N)c1-c1noc(C)n1)c1nc2cccc(-c3cnn(C)c3)c2c(=O)n1C1CC1 [Ex. 79]
[II] Cc1nnc(-c2c(N)ncnc2N[C@@H](C)c2nc3cccc(-c4cnn(C)c4)c3c(=O)n2-c2ccccc2)o1 [Ex. 69]
Endpoint returns whichever of I and II has the numerically higher Vd. Reply briefly: the label of your chosen item.
I
(I: 4.25 L/kg, II: 1.54 L/kg)

[I] Cc1nnc(-c2c(N)ncnc2N[C@@H](C)c2nc3cccc(Cl)c3c(=O)n2C2CC2)o1 [Ex. 70]
[II] Cc1nnc(-c2c(N)ncnc2N[C@@H](C)c2nc3cccc(-c4cnn(C)c4)c3c(=O)n2C2CC2)o1 [Ex. 67]
Sort I and II by Vd descending and give the first. // return label of chosen record
I
(I: 3.3 L/kg, II: 1.86 L/kg)

[I] C[C@H](Nc1ncnc(N)c1-c1nnn(C)n1)c1nc2cccc(-c3cnn(C)c3)c2c(=O)n1-c1ccccc1 [Ex. 76]
[II] C[C@H](Nc1ncnc(N)c1-c1nnn(C)n1)c1nc2cccc(-c3cnn(C)c3)c2c(=O)n1C1CC1 [Ex. 75]
API: POST /compare with I and II ; response names the item with higher Vd. Respond using the label that marks the chosen record.
II

[P] Cc1nc(-c2c(N)ncnc2N[C@@H](C)c2nc3cccc(-c4cnn(C)c4)c3c(=O)n2-c2ccccc2)no1 [Ex. 77]
[Q] CC[C@H](Nc1ncnc(N)c1-c1nc(C)no1)c1nc2cccc(-c3cnn(C)c3)c2c(=O)n1-c1ccccc1 [Ex. 74]
In terms of reported Vd, does P or Q have the smaller number? // respond with label for picked entry
P
(P: 0.78 L/kg, Q: 1.83 L/kg)
